- target.entity: cyEpCAM ECD Ag0066 (cyno)
- assay.comment: SPR single-cycle
experimental.readout: Kd (nM)
One number for each entry, in nM.

Known results for binders:
- binder: "Ab1018 (antibody, V domains shown) VH: EVQLVESGGGLVQPGGSLRLSCAASGFTFSNYWMNWVRQAPGKGLEWVAQIRVKSENFATHYADSVKGRFTISRDDSKSTVYLQMNSLRAEDTAVYYCTLYEGFSWGQGTLVTVSS VL: DIQMTQSPSSLSASVGDRVTITCSASSSVSSGNFHWYQQKPGKAPKLLIYRTSNLASGVPSRFSGSGSGTDYTLTISSLQPEDFATYYCQQWSGYPYTFGQGTKVEIK"
  unit.spec: "nM"
  experimental.value: 2.1
- binder: "Ab1012 (antibody, V domains shown) VH: EVQLVESGGGLVQPGGSLRLSCAASGFTFSSYWMNWVRQAPGKGLEWVAQIRVKSENFATHYADSVKGRFTISRDDSKSTVYLQMNSLRAEDTAVYYCTLYDGFSWGQGTLVTVSS VL: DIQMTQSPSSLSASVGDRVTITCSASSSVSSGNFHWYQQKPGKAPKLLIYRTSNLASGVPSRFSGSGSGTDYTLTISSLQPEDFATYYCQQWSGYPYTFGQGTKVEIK"
  unit.spec: "nM"
  experimental.value: 6.2

Quick one: Kd for Ab1016 (antibody, V domains shown) VH: EVQLVESGGGLVQPGGSLRLSCAASGFTFSNYYMNWVRQAPGKGLEWVAQIRVKSENFATHYADSVKGRFTISRDDSKSTVYLQMNSLRAEDTAVYYCTLYDGFSWGQGTLVTVSS VL: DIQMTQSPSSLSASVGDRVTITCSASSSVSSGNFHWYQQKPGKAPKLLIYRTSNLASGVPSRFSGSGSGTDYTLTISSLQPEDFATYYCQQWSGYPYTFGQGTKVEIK ?
7.7
